- run description: Solubility measurement in various solvents (HPLC)
- Assay type: physicochemical
- test parameters: 2-methoxyethanol, 50 °C, organic solvent or mixture, thermodynamic from solid, 24 h

# compound, solubility at 24 h
rows = [
    ("CCOc1c(-c2cn[nH]c2)ccn2nc(N[C@H]3CCN(S(C)(=O)=O)C[C@H]3C)nc12 [compound of Formula (I) Form I]", "> 50 mg/mL"),
]
